From: patent US8754079B2

Target: MNK2 (Homo sapiens)
Construct: the open reading frames of human Mnk1 and Mnk2a were amplified from cDNA
Sequence (Q9HBH9 whole entry): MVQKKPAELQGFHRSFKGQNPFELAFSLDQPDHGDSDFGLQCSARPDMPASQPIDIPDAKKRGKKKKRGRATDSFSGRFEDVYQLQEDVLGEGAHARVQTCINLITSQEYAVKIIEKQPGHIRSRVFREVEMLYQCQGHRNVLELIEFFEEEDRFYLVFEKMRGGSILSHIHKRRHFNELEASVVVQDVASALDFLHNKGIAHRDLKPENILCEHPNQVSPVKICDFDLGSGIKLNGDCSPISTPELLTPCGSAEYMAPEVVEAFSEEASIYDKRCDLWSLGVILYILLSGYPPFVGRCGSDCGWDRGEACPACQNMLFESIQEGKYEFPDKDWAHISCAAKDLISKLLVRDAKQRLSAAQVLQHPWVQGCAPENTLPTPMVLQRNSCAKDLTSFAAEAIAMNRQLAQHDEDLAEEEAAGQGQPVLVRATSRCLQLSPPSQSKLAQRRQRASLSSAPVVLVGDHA
Assay: Mnk2a in vitro kinase assay (indirect fluorescence polarization)
Conditions: pre-activated GST-Mnk2a 2.5 nM, 20 μM ATP, 30 μM substrate peptide
pIC50: −log10 of the molar value.
OBSERVATION TYPE: pIC50

COMPOUND | EXPERIMENTAL TARGET | pIC50
CO[C@@H]1CCC[C@@H](Oc2ncccc2Nc2ncnc3sc(C(=O)NCCN4CCCCC4)c(C)c23)C1 (racemic) | MNK2 (Homo sapiens) | 7.17

a = COCCNC(=O)c1sc2ncnc(Nc3ccc(F)cc3O[C@H]3CC[C@@H](OC)CC3)c2c1C
b = CO[C@H]1CC[C@H](Oc2cc(F)ccc2Nc2ncnc3sc(C(=O)NCC#CCN)c(C)c23)CC1
Query: Field: lower recorded pIC50 (choose a or b ) Could you answer with the label of the item you picked?
Response: a
(a: 7.21, b: 7.80)
